- study-target: NR1/NR2A (Homo sapiens (Human), UniProt Q05586+Q12879)
- Sequence (Q12879 23-1464, other chains not shown): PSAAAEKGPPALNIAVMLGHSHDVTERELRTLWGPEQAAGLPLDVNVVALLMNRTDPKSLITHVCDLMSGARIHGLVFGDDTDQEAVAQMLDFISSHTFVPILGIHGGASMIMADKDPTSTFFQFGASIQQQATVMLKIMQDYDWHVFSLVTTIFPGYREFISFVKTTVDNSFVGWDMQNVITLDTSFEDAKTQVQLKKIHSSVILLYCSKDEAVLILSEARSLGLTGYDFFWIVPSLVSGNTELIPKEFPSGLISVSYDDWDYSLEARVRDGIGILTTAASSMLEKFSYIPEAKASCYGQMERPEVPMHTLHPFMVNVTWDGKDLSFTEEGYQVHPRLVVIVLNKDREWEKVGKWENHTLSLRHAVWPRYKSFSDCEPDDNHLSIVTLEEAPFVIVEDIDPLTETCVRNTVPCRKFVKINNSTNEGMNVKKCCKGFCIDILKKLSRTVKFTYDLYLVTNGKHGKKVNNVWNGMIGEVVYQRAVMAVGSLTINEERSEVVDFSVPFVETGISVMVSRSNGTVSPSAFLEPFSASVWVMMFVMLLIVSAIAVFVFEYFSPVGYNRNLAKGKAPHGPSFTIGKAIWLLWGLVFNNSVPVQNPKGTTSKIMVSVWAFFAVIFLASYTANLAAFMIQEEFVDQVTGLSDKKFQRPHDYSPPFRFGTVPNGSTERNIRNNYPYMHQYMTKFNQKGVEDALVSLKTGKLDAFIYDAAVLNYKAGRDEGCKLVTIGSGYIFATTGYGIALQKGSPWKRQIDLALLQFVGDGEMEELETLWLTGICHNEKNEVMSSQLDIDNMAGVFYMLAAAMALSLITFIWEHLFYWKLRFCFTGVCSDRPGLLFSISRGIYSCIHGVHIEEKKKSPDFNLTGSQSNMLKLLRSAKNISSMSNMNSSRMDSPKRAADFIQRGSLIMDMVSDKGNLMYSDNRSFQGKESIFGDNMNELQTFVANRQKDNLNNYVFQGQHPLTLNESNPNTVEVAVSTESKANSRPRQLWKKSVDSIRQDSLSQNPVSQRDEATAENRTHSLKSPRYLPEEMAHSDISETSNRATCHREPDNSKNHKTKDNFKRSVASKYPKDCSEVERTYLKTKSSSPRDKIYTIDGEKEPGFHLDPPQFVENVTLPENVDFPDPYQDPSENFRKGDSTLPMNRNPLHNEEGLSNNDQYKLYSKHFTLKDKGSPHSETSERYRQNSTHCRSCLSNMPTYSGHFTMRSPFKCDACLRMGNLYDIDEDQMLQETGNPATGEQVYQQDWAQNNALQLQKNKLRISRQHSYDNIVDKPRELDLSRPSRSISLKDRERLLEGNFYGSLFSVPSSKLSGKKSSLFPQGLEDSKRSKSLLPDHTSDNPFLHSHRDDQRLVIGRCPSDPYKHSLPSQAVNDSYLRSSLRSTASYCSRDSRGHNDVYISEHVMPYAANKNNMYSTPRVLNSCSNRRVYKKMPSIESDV
- method-summary: FDSS Ca2+ influx inhibition assay in HEK293 cells expressing NR1/NR2A
- Format: cell-based
- stated-conditions: 3 μM glutamate, 3 μM glycine, 1 mM Ca2+, inhibition relative to MK801, read-out: NR2A IC50
Reported values of IC50 for individual entries
quantity-name: IC50 (µM)

> print(dat)
                                    compound                              study.target  quantity.name  numeric.readout
 1  C[C@@H](NC(=O)c1ccc(CNS(=O)(=O)c2ccc(F)c(Cl)c2)nn1)c1cncs1  NR1/NR2A (Homo sapiens (Human), UniProt Q05586+Q12879)           IC50               10
 2  COc1ccc(CNC(=O)c2cnc(CNS(=O)(=O)c3ccc(F)c(Cl)c3)cn2)cc1  NR1/NR2A (Homo sapiens (Human), UniProt Q05586+Q12879)           IC50               10
 3  Cc1ncc(CNC(=O)c2cnc(CNS(=O)(=O)c3ccccc3F)c(C)n2)s1  NR1/NR2A (Homo sapiens (Human), UniProt Q05586+Q12879)           IC50               10
 4  CC(=O)N1CCc2cc(S(=O)(=O)NCc3cnc(C(=O)NCc4cnc(C)s4)cn3)ccc21  NR1/NR2A (Homo sapiens (Human), UniProt Q05586+Q12879)           IC50               10
 5  Cc1ncc(CNC(=O)c2cnc(CNC(=O)c3cccc(C#N)c3)c(C)n2)s1  NR1/NR2A (Homo sapiens (Human), UniProt Q05586+Q12879)           IC50               10
 6  Cn1nccc1CNC(=O)c1ccc(CNS(=O)(=O)c2ccc(F)c(Cl)c2)nc1  NR1/NR2A (Homo sapiens (Human), UniProt Q05586+Q12879)           IC50               10
 7  Cc1ncc(CNC(=O)c2ccc(CNS(=O)(=O)c3ccoc3)cn2)s1  NR1/NR2A (Homo sapiens (Human), UniProt Q05586+Q12879)           IC50               10
 8  CC(NC(=O)c1ccc(CNS(=O)(=O)c2ccc(F)c(Cl)c2)nn1)c1cccs1 (stereo not shown)  NR1/NR2A (Homo sapiens (Human), UniProt Q05586+Q12879)           IC50               10
 9  Cc1nnc(CNC(=O)c2ccc(CNS(=O)(=O)c3ccc(F)c(Cl)c3)nc2)s1  NR1/NR2A (Homo sapiens (Human), UniProt Q05586+Q12879)           IC50               10
10  COc1ccc(CNC(=O)c2ccc(CNS(=O)(=O)c3ccc(F)c(Cl)c3)nn2)cc1  NR1/NR2A (Homo sapiens (Human), UniProt Q05586+Q12879)           IC50               10

---

- study-target: NR1/NR2A (Homo sapiens (Human), UniProt Q05586+Q12879)
- method-summary: FDSS Ca2+ influx inhibition assay in HEK293 cells expressing NR1/NR2A
- Assay type: cell-based
- stated-conditions: 3 μM glutamate, 3 μM glycine, 1 mM Ca2+, read-out: Binned Activity
quantity-name: IC50

> print(dat)
                                    molecule                              study.target  quantity.name       result
 1  O=C(NCc1cocn1)c1ccc(CNS(=O)(=O)c2ccc(F)c(Cl)c2)nc1  NR1/NR2A (Homo sapiens (Human), UniProt Q05586+Q12879)           IC50      > 10 µM
 2  Cc1ncc(C(C)NC(=O)c2cnc(CNS(=O)(=O)c3ccc(F)c(Cl)c3)cn2)s1 (stereo not shown)  NR1/NR2A (Homo sapiens (Human), UniProt Q05586+Q12879)           IC50  0.1 to 1 µM
 3  Cc1ccncc1CNC(=O)c1ccc(CNS(=O)(=O)c2ccc(F)c(Cl)c2)nc1  NR1/NR2A (Homo sapiens (Human), UniProt Q05586+Q12879)           IC50   1 to 10 µM
 4  CC(NC(=O)c1ccc(CNS(=O)(=O)c2ccc(F)c(Cl)c2)nn1)c1ccco1 (stereo not shown)  NR1/NR2A (Homo sapiens (Human), UniProt Q05586+Q12879)           IC50      > 10 µM
 5  CN(C)CCCCNC(=O)c1ccc(CNS(=O)(=O)c2ccc(F)c(Cl)c2)nc1  NR1/NR2A (Homo sapiens (Human), UniProt Q05586+Q12879)           IC50      > 10 µM
 6  Cc1cccc(CNC(=O)c2ccc(CNS(=O)(=O)c3ccc(F)c(Cl)c3)cn2)n1  NR1/NR2A (Homo sapiens (Human), UniProt Q05586+Q12879)           IC50      > 10 µM
 7  O=C(NCc1ccncn1)c1ccc(CNS(=O)(=O)c2ccc(F)c(Cl)c2)cn1  NR1/NR2A (Homo sapiens (Human), UniProt Q05586+Q12879)           IC50      > 10 µM
 8  Cc1ncc(CNC(=O)c2ccc(CNS(=O)(=O)c3ccc(F)c(F)c3)cn2)s1  NR1/NR2A (Homo sapiens (Human), UniProt Q05586+Q12879)           IC50  0.1 to 1 µM
 9  Cc1ncc(CNC(=O)c2cnc(CNS(=O)(=O)c3ccc(Oc4ccccc4)nc3)cn2)s1  NR1/NR2A (Homo sapiens (Human), UniProt Q05586+Q12879)           IC50      > 10 µM
10  O=C(NCc1cncs1)c1cnc(CNS(=O)(=O)c2ccc(F)c(Cl)c2)cn1  NR1/NR2A (Homo sapiens (Human), UniProt Q05586+Q12879)           IC50  0.1 to 1 µM

---

Reported values of pIC50 for individual entries
- study-target: NR1/NR2A (Homo sapiens (Human), UniProt Q05586+Q12879)
- method-summary: FDSS Ca2+ influx inhibition assay in HEK293 cells expressing NR1/NR2A
- Type: cell-based
- stated-conditions: 3 μM glutamate, 3 μM glycine, 1 mM Ca2+, read-out: Binned Activity
pIC50: −log10 of the molar value.
quantity-name: pIC50

> print(dat)
                          compound.structure        result
 1  Cc1ncc(CNC(=O)c2ccc(CNC(=O)c3ccc(Cl)c(Cl)c3)cn2)s1        < 5.00
 2  Cc1ncc(CNC(=O)c2ccc(CNS(=O)(=O)c3cc(Cl)ccc3F)cn2)s1        < 5.00
 3  Cc1ncc(CNC(=O)c2cnc(CNC(=O)c3cccc(C#N)c3)cn2)s1        < 5.00
 4  Cc1ncsc1CNC(=O)c1cnc(CNS(=O)(=O)c2ccc(F)c(Cl)c2)cn1        < 5.00
 5  O=C(NCc1ncc(C(F)(F)F)cc1Cl)c1ccc(CNS(=O)(=O)c2ccc(F)c(Cl)c2)cn1        < 5.00
 6  O=C(NCc1ncccc1C(F)(F)F)c1ccc(CNS(=O)(=O)c2ccc(F)c(Cl)c2)cn1        < 5.00
 7  Cc1ncc(CNC(=O)c2ccc(CNS(=O)(=O)c3ccc(Cl)c(F)c3)cn2)s1  5.00 to 6.00
 8  COc1ccc(CNC(=O)c2ccc(CNS(=O)(=O)c3ccc(F)c(Cl)c3)nn2)cc1        < 5.00
 9  O=C(NCc1nccs1)c1ccc(CNS(=O)(=O)c2ccc(F)c(Cl)c2)nc1        < 5.00
10  C[C@@H](NC(=O)c1ccc(CNS(=O)(=O)c2ccc(F)c(Cl)c2)cn1)c1cncs1        < 5.00
11  COc1ccc(CCNC(=O)c2ccc(CNS(=O)(=O)c3ccc(F)c(Cl)c3)cn2)cc1        < 5.00
12  O=C(NCc1cncnc1)c1cnc(CNS(=O)(=O)c2ccc(F)c(Cl)c2)cn1  5.00 to 6.00
13  Cc1ncc(CNC(=O)c2ccc(CNS(=O)(=O)c3ccc(F)cc3)cn2)s1  5.00 to 6.00
14  COc1ccc(CNC(=O)c2cnc(CNS(=O)(=O)c3ccc(F)c(Cl)c3)cn2)cn1        < 5.00
15  Cc1ncc(CNC(=O)c2cnc(CNS(=O)(=O)c3cc(Cl)cc(Cl)c3)cn2)s1        < 5.00
16  CC(=O)N1CCc2cc(S(=O)(=O)NCc3ccc(C(=O)NCc4cnc(C)s4)nc3)ccc21        < 5.00
17  Cc1ncc(CNC(=O)c2ccc(CNS(=O)(=O)c3cccs3)cn2)s1  5.00 to 6.00
18  Cc1ncc(CNC(=O)c2ccc(CNS(=O)(=O)c3ccc(C(F)(F)F)cc3)cn2)s1        < 5.00
19  Cc1cc(CNC(=O)c2ccc(CNS(=O)(=O)c3ccc(F)c(Cl)c3)nc2)n(C)n1        < 5.00
20  COc1ccc(CNC(=O)c2cnc(CNS(=O)(=O)c3ccc(F)c(Cl)c3)cn2)cc1        < 5.00

All values here come from patent US9963434B2.
